Assay: logP determination by HPLC (reversed-phase C18, EEC Directive 79/831 Annex V.A8)
Assay type: physicochemical
Conditions: reversed-phase C18 HPLC column; HPLC, neutral range pH 7.5, 0.01 molar phosphate buffer/acetonitrile; marked b); read-out: log P (pH 7.5)
Readout kind: chromatographic logP

- Compound: "CCCCN(CC)C(=O)Nc1ccc(-c2ccc(C3CCC(c4c(F)cccc4F)=N3)cc2)cc1 (stereo not drawn)"
  Readout kind: "chromatographic logP"
  Measured value: 4.36
- Compound: "O=C(Nc1ccc(-c2ccc(C3CCC(c4c(F)cccc4F)=N3)cc2)cc1)N1CCOCC1 (stereo not drawn)"
  Readout kind: "chromatographic logP"
  Measured value: 2.96
- Compound: "CNC(=O)Nc1ccc(-c2ccc(C3CCC(c4c(F)cccc4F)=N3)cc2)cc1 (stereo not drawn)"
  Readout kind: "chromatographic logP"
  Measured value: 2.78
- Compound: "O=C1OCCN1c1ccc(-c2ccc(C3CCC(c4c(F)cccc4F)=N3)cc2)cc1 (stereo not drawn)"
  Readout kind: "chromatographic logP"
  Measured value: 3.28
- Compound: "O=C(Nc1ccccc1)Nc1ccc(-c2ccc(C3CCC(c4c(F)cccc4F)=N3)cc2)cn1 (stereo not drawn)"
  Readout kind: "chromatographic logP"
  Measured value: 3.98
- Compound: "O=C(Nc1ccc(-c2ccc(C3CCC(c4c(F)cccc4F)=N3)cc2)cc1)N1CCCCC1 (stereo not drawn)"
  Readout kind: "chromatographic logP"
  Measured value: 3.71

----------
Assay: logP determination by HPLC (reversed-phase C18, EEC Directive 79/831 Annex V.A8)
Format: physicochemical
Conditions: HPLC, neutral range pH 7.5, 0.01 molar phosphate buffer/acetonitrile; marked b); read-out: log P (pH 7.5)
Note to self: values exactly at 5 are Criterion met. So chromatographic logP at or above 5 is Criterion met, below is Criterion not met.

- Compound: "O=C(Nc1ccc(-c2ccc(C3CCC(c4c(F)cccc4F)=N3)cc2)cc1)OCCc1ccccc1 (stereo not shown) [Compound 25]"
  Group: "Criterion not met"
- Compound: "O=C(Nc1ccc(-c2ccc(C3CCC(c4c(F)cccc4F)=N3)cc2)cc1)OCc1ccco1 (stereo not shown) [Compound 26]"
  Group: "Criterion not met"
- Compound: "CC(C)OC(=O)Nc1ccc(-c2ccc(C3CCC(c4c(F)cccc4F)=N3)cc2)cc1 (stereo not shown) [Compound 7]"
  Group: "Criterion not met"
- Compound: "COC(=O)N(C)c1ccc(-c2ccc(C3CCC(c4c(F)cccc4F)=N3)cc2)cc1 (stereo not shown) [Compound 35]"
  Group: "Criterion not met"
- Compound: "O=C(Nc1ccc(-c2ccc(C3CCC(c4c(F)cccc4F)=N3)cc2)cc1)OCc1cccs1 (stereo not shown) [Compound 27]"
  Group: "Criterion not met"
- Compound: "CCOC(=O)Nc1ccc(-c2ccc(C3CCC(c4c(F)cccc4F)=N3)cc2)cc1 (stereo not shown) [Compound 6]"
  Group: "Criterion not met"
- Compound: "CCOC(=O)N(C)c1ccc(-c2ccc(C3CCC(c4c(F)cccc4F)=N3)cc2)cc1 (stereo not shown) [Compound 37]"
  Group: "Criterion not met"
- Compound: "COC(=O)Nc1ccc(-c2ccc(C3CCC(c4c(F)cccc4F)=N3)cc2)cc1 (stereo not shown) [Compound 1]"
  Group: "Criterion not met"
- Compound: "CCCCC(CC)COCCOC(=O)Nc1ccc(-c2ccc(C3CCC(c4c(F)cccc4F)=N3)cc2)cc1 (stereo not shown) [Compound 28]"
  Group: "Criterion met"
- Compound: "CCCCCCOC(=O)Nc1ccc(-c2ccc(C3CCC(c4c(F)cccc4F)=N3)cc2)cc1 (stereo not shown) [Compound 19]"
  Group: "Criterion met"
- Compound: "CC(C)COC(=O)Nc1ccc(-c2ccc(C3CCC(c4c(F)cccc4F)=N3)cc2)cc1 (stereo not shown) [Compound 8]"
  Group: "Criterion not met"
- Compound: "CCCC(C)OC(=O)Nc1ccc(-c2ccc(C3CCC(c4c(F)cccc4F)=N3)cc2)cc1 (stereo not shown) [Compound 17]"
  Group: "Criterion not met"
- Compound: "CCCN(CCC)CCOC(=O)Nc1ccc(-c2ccc(C3CCC(c4c(F)cccc4F)=N3)cc2)cc1 (stereo not shown) [Compound 29]"
  Group: "Criterion met"
- Compound: "O=C(Nc1ccc(-c2ccc(C3CCC(c4c(F)cccc4F)=N3)cc2)cc1)OC1CCCCC1 (stereo not shown) [Compound 10]"
  Group: "Criterion not met"
- Compound: "CCCCOC(=O)Nc1ccc(-c2ccc(C3CCC(c4c(F)cccc4F)=N3)cc2)cc1 (stereo not shown) [Compound 9]"
  Group: "Criterion not met"
